Where do the numbers come from? From PubChem BioAssay AID2202554.

Test system: S. typhimurium/E. coli reverse mutation, colony counts
Assay: Bacterial reverse mutation test (aka Ames test) summary data;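 further: His-minus Salmonella and trp-minus E. coli WP2 uvrA pKM101 with or without liver S9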
Records with an inconclusive call do not appear. Activity calls are given as the source filed them. How the calls were made is not given here.
Your response should consist of one outcome taken from y (active), n (inactive)

Challenge: Outcome logged for O=C(O)C1=NN(c2ccc(S(=O)(=O)O)cc2)C(=O)C1N=Nc1ccc(S(=O)(=O)[O-])cc1.O=C(O)C1=NN(c2ccc(S(=O)(=O)O)cc2)C(=O)C1N=Nc1ccc(S(=O)(=O)[O-])cc1.O=C(O)C1=NN(c2ccc(S(=O)(=O)O)cc2)C(=O)C1N=Nc1ccc(S(=O)(=O)[O-])cc1.[Al+3] (centres undefined) in this assay:
Response given: n

Challenge: Outcome logged for Cc1cccc(C)c1[N+](=O)[O-] in this assay:
Response given: y

Challenge: Outcome logged for Fc1ccccc1 in this assay:
Response given: y

Challenge: Outcome logged for CC(C)CC(=O)CC(C)C in this assay:
Response given: n
